- system: protein-protein interaction between Kras and SOS1 (biotin-tagged human Kras loaded with GDP, His-tagged human SOS1) (Homo sapiens (Human), UniProt P01116, G12D)
- method-notes: Protein-protein interaction inhibition between Kras and SOS1 (KrasG12D-SOS PPI) using AlphaScreen;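 further: kras produced in E. coli, Ni-coupled donor beads and streptavidin acceptor beads, excitation 680 nm with emission detected at 520–620 nm via singlet oxygen transfer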
- Format: biochemical
- assay-setup: AlphaScreen; biotin-tagged human Kras loaded with GDP, His-tagged human SOS1; read-out: KRAS G12D-SOS PPI IC50
Numbered stars: 1 amine (or outer) side, 2 acyl side, 3 side chain; on linkers, the order of the positions; unused ones are H or OH. Bridge positions count the residues as written; N and C are the ends. Square brackets hold non-standard residues; d marks the D form. Peptide text beside a SMILES is read from it. * marks the point of attachment. hPhe(3,5-F2-4-CF3) = N[C@@H](CCc1cc(F)c(C(F)(F)F)c(F)c1)C(=O)O; hPhe(3-Cl-4-CF3) = N[C@@H](CCc1ccc(C(F)(F)F)c(Cl)c1)C(=O)O; NEtPhe(4-CF3) = CCN[C@@H](Cc1ccc(C(F)(F)F)cc1)C(=O)O; NMePhe(4-CF3) = CN[C@@H](Cc1ccc(C(F)(F)F)cc1)C(=O)O; X6 = O=C([C@H](CCc1ccc2c(c1)OC(F)(F)O2)N[*:1])[*:2]; X56 = O=C([C@H](CCc1cccc(C(F)(F)F)c1)N[*:1])[*:2]; hPhe(4-CF3) = N[C@@H](CCc1ccc(C(F)(F)F)cc1)C(=O)O; NEtAsp = CCN([C@@H](CC(=O)[*:3])C(=O)[*:2])[*:1]; NMeAbu(4,4,4-F3) = CN[C@@H](CC(F)(F)F)C(=O)O; NMePhe(4-Cl) = CN[C@@H](Cc1ccc(Cl)cc1)C(=O)O; NMedβ3hAla = C[C@H](CC(=O)[*:2])N(C)[*:1]; NMeGly(cPent) = CN[C@H](C(=O)O)C1CCCC1; NMeGly(cBu) = CN[C@H](C(=O)O)C1CCC1; NMeCha = CN[C@@H](CC1CCCCC1)C(=O)O; Hyp = O=C(O)[C@@H]1C[C@@H](O)CN1; NMeChg = CN[C@H](C(=O)O)C1CCCCC1; NMeF = CN[C@@H](Cc1ccccc1)C(=O)O; NMeD = CN[C@@H](CC(=O)O)C(=O)O; CH2CONHtBu = CC(C)(C)NC(=O)C*; NMeL = CN[C@@H](CC(C)C)C(=O)O; NMeV = CN[C@H](C(=O)O)C(C)C; d(β3hA) = C[C@@H](N)CC(=O)O; NMeS = CN[C@@H](CO)C(=O)O; Pip = O=C(O)[C@@H]1CCCCN1; NMeA = CN[C@@H](C)C(=O)O; Piperidide = C1CCN(*)CC1; Pyrrolidide = C1CCN(*)C1; Ac5c = NC1(C(=O)O)CCCC1; Aze = O=C(O)[C@@H]1CCN1; Ac4c = NC1(C(=O)O)CCC1; NBuGly = CCCCNCC(=O)O; Aib = CC(C)(N)C(=O)O; Isopentyl = CC(C)CC*; NEtG = CCNCC(=O)O; Sar = CNCC(=O)O
value-kind: pIC50
# pIC50: negative log10 of molar concentration; output just the value

Sample records with pIC50:
CCO[C@@H]1C[C@H]2C(=O)NC3(CCCC3)C(=O)N(C)[C@@H](C3CCCCC3)C(=O)N(C)[C@H](C(=O)N3CCCC3)CC(=O)N(C)[C@@H](CC(F)(F)F)C(=O)N[C@@H]([C@@H](C)CC)C(=O)N(C)CC(=O)N(C)CC(=O)N(C)[C@@H](Cc3ccc(C(F)(F)F)cc3)C(=O)N(C)CC(=O)N[C@@H](CCc3cc(F)c(C(F)(F)F)c(F)c3)C(=O)N2C1 [Compound 1271] ([NMeAbu(4,4,4-F3)]I[Sar][Sar][NMePhe(4-CF3)][Sar][hPhe(3,5-F2-4-CF3)][Hyp](Et)[Ac5c][NMeChg][NMeD]-Pyrrolidide; lactam N-11): 9.31
CC[C@H](C)[C@@H]1NC(=O)[C@H](CC(C)C)N(C)C(=O)C[C@@H](C(=O)N2CCCCC2)N(CC)C(=O)[C@H](C2CCCC2)N(C)C(=O)C2(CCCC2)NC(=O)[C@@H]2CCCN2C(=O)[C@H](CCc2ccc(C(F)(F)F)c(Cl)c2)NC(=O)CN(C)C(=O)[C@H](C2CCC2)N(C)C(=O)[C@@H]2CCN2C(=O)[C@H](C)N(C)C1=O [Compound 1047] ([NMeL]I[NMeA][Aze][NMeGly(cBu)][Sar][hPhe(3-Cl-4-CF3)]P[Ac5c][NMeGly(cPent)][NEtAsp]-Piperidide; lactam N-11): 8.20
CC[C@H](C)[C@@H]1NC(=O)[C@H](CC(C)C)N(C)C(=O)C[C@@H](C(=O)N2CCCCC2)N(C)C(=O)[C@H](C2CCCCC2)N(C)C(=O)C2(CCCC2)NC(=O)[C@H](C)N(C)C(=O)[C@H](CCc2ccc(C(F)(F)F)c(Cl)c2)NC(=O)CN(C)C(=O)[C@H](CC2CCCCC2)N(C)C(=O)CN(C)C(=O)CN(C)C1=O [Compound 294] ([NMeL]I[Sar][Sar][NMeCha][Sar][hPhe(3-Cl-4-CF3)][NMeA][Ac5c][NMeChg][NMeD]-Piperidide; lactam N-11): 8.85

So what does the record say about pIC50 for CCCCN1CC(=O)N(C)CC(=O)N(C)[C@@H](Cc2ccc(Cl)cc2)C(=O)N(C)CC(=O)N[C@@H](CCc2ccc(C(F)(F)F)cc2)C(=O)N(C)[C@@H](CC(C)C)C(=O)NC(C)(C)C(=O)N(C)[C@@H](CC(C)C)C(=O)N[C@H](C)CC(=O)N(C)[C@@H](C)C(=O)N[C@@H]([C@@H](C)CC)C1=O [Compound 436] (cyclo([Aib][NMeL][d(β3hA)][NMeA]I[NBuGly][Sar][NMePhe(4-Cl)][Sar][hPhe(4-CF3)][NMeL])) ?
6.80

# iterate: CC[C@H](C)[C@@H]1NC(=O)[C@H](CC(C)C)N(C)C(=O)C[C@@H](C)NC(=O)[C@H](C(C)C)N(C)C(=O)C2(CCCC2)NC(=O)[C@@H]2CCCN2C(=O)[C@H](CCc2ccc(C(F)(F)F)c(Cl)c2)NC(=O)CN(C)C(=O)[C@H](CC2CCCCC2)N(C)C(=O)[C@@H]2CCN2C(=O)[C@@H]2CCCCN2C1=O [Compound 416] (cyclo([Ac5c][NMeV][d(β3hA)][NMeL]I[Pip][Aze][NMeCha][Sar][hPhe(3-Cl-4-CF3)]P))
7.27

# iterate: CC[C@H](C)[C@@H]1NC(=O)[C@H](CC(C)C)N(C)C(=O)C[C@@H](C(=O)N2CCCCC2)N(C)C(=O)[C@H](C2CCCC2)N(C)C(=O)C2(CCCC2)NC(=O)[C@@H]2CCCN2C(=O)[C@H](CCc2ccc3c(c2)OC(F)(F)O3)NC(=O)CN(C)C(=O)[C@H](CC2CCCCC2)N(C)C(=O)[C@@H]2CCN2C(=O)[C@H](C)N(C)C1=O [Compound 2074] ([NMeL]I[NMeA][Aze][NMeCha][Sar][X6]P[Ac5c][NMeGly(cPent)][NMeD]-Piperidide; lactam N-11 (inferred); C-terminus assumed)
8.57

# iterate: CC[C@H](C)[C@@H]1NC(=O)[C@H](COCC(=O)NC(C)(C)C)N(C)C(=O)C[C@@H](C)NC(=O)[C@H](CC(C)C)N(C)C(=O)C(C)(C)NC(=O)[C@H](CC(C)C)N(C)C(=O)[C@H](CCc2ccc(C(F)(F)F)c(Cl)c2)NC(=O)CN(C)C(=O)[C@H](COCCC(C)C)N(C)C(=O)CN(C)C(=O)CN(CC)C1=O [Compound 1495] (cyclo([Aib][NMeL][d(β3hA)][NMeS](CH2CONHtBu)I[NEtG][Sar][NMeS](Isopentyl)[Sar][hPhe(3-Cl-4-CF3)][NMeL]))
6.92

# iterate: CCO[C@@H]1C[C@H]2C(=O)NC3(CCC3)C(=O)N(C)[C@@H](C3CCCCC3)C(=O)N(C)[C@H](C)CC(=O)N(C)[C@@H](CC(C)C)C(=O)N[C@@H]([C@@H](C)CC)C(=O)N(C)[C@@H](C)C(=O)N3CC[C@H]3C(=O)N(CC)[C@@H](Cc3ccc(C(F)(F)F)cc3)C(=O)N(C)CC(=O)N[C@@H](CCc3ccc(C(F)(F)F)c(Cl)c3)C(=O)N2C1 [Compound 296] (cyclo([Ac4c][NMeChg][NMedβ3hAla][NMeL]I[NMeA][Aze][NEtPhe(4-CF3)][Sar][hPhe(3-Cl-4-CF3)][Hyp](Et)))
7.26

# iterate: CC[C@H](C)[C@@H]1NC(=O)[C@H](C)N(C)C(=O)C[C@@H](C)NC(=O)[C@H](CC(C)C)N(C)C(=O)[C@H](Cc2ccccc2)N(C)C(=O)[C@H](CC(C)C)NC(=O)[C@H](CCc2cccc(C(F)(F)F)c2)NC(=O)CN(C)C(=O)[C@H](Cc2ccc(Cl)cc2)N(C)C(=O)CN(C)C(=O)CN(C)C1=O [Compound 2095] (cyclo(I[Sar][Sar][NMePhe(4-Cl)][Sar][X56]L[NMeF][NMeL][d(β3hA)][NMeA]))
6.62
